Source listed as patent US20200246316A1.

# test.description: Rat 28-day GLP repeat dose PO study (toxicokinetics)
# Assay type: in vivo
# settings: male, rat, in vivo, po, 1000 mg/kg, Day 28, M, 1000 mg/kg PO; read-out: t1/2 (converted)
Structures can show the parent of a compound that is named as a salt.
reported.endpoint: half-life
Answer as a quantity: numeral, then unit.

Task: For the compound CC1(C)SC(Nc2ccccc2O)=N[C@@H]1C(=O)O [Compound 1, mono-hydrochloride] , report half-life.
Output: 3.31 h

* * *

# test.description: Rat 28-day GLP repeat dose PO study (toxicokinetics)
# Type: in vivo
# settings: male, rat, in vivo, po, 2000 mg/kg, Day 28, M, 2000 mg/kg PO
# Experimental: The vehicle was 0.5% HPMC. There were 15 rats/sex in the control and high dose groups (5/sex for a 14-day recovery period) while the low and mid doses consisted of 10 rats/sex. Satellite groups of rats/sex/group for toxicokinetics were included. Rats in Group 1 (Vehicle Control) were bled once at approximately 1 hour post-dose on those days.
Where a name gives a salt, the structure may show the parent alone.
reported.endpoint: AUC

Task: For the compound CC1(C)SC(Nc2ccccc2O)=N[C@@H]1C(=O)O [Compound 1, mono-hydrochloride] , report AUC.
Output: 724 µg·h/mL
